tested.system: BACE-1 (Homo sapiens)
measured.quantity: Ki (µM)
Give bare numbers, in µM.

Exercise: Field request: Ki | item: CNCCCC1c2ccccc2C=Cc2ccccc21
Key: 5

* * *

tested.system: BACE-1 (Homo sapiens, UniProt P56817)
Sequence (P56817 46-501): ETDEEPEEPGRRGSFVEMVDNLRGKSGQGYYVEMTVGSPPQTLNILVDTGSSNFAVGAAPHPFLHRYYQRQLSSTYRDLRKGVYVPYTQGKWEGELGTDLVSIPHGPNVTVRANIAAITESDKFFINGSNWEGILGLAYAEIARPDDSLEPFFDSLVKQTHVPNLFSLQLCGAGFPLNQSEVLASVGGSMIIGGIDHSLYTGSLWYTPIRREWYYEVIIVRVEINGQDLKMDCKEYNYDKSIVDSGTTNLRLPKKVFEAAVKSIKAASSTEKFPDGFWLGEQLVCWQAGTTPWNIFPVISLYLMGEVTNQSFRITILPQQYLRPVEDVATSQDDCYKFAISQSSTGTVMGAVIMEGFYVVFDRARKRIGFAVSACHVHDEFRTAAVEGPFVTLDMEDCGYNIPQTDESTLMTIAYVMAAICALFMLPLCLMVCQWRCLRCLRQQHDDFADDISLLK
assay.notes: biochemical
condition.context: IC50 for BACE1, summary statement
pIC50: −log10 of the molar value.
measured.quantity: pIC50

Exercise: Field request: pIC50 | item: CNCCCC1c2ccccc2C=Cc2ccccc21
Key: > 3.82

* * *

tested.system: Aβ13–22 (Homo sapiens, UniProt P05067)
pIC50: −log10 of the molar value.
measured.quantity: pIC50

Exercise: Field request: pIC50 | item: CNCCCC1c2ccccc2C=Cc2ccccc21
Key: > 3.82
